This listing pairs compounds with measured AUC(0-inf).
test: AUC (0 to infinity) in Han Wistar rat at 5 mg/kg, po by LC-MS/MS analysis; format: ADME, organism-based; set-up: dose 5 mg/kg, time infinity, route oral; settings: in vivo
VALUE KIND: AUC(0-inf)

SMILES TEXT: COC(=O)N[C@H](C(=O)N1[C@H](c2ncc(-c3ccc4c(c3)-c3ccc(-c5cnc([C@@H]6C[C@@H]7CCC[C@@H]7N6C(=O)[C@@H](NC(=O)OC)[C@@H](C)OC)[nH]5)cc3-4)[nH]2)C[C@@H]2CCC[C@@H]21)[C@@H](C)OC
TEST RESULT: 216 ng·h/mL

SMILES TEXT: COC(=O)N[C@H](C(=O)N1[C@H](c2ncc(-c3ccc4c(c3)-c3ccc(-c5cnc([C@@H]6C[C@@H]7CCC[C@@H]7N6C(=O)[C@@H](NC(=O)OC)[C@@H](C)OC)[nH]5)cc3-4)[nH]2)C[C@@H]2CCC[C@@H]21)[C@@H](C)OC.Cl
TEST RESULT: 1260 ng·h/mL
